SYSTEM UNDER TEST: CYP3A4 (Homo sapiens, UniProt P08684)
Sequence (P08684 whole entry): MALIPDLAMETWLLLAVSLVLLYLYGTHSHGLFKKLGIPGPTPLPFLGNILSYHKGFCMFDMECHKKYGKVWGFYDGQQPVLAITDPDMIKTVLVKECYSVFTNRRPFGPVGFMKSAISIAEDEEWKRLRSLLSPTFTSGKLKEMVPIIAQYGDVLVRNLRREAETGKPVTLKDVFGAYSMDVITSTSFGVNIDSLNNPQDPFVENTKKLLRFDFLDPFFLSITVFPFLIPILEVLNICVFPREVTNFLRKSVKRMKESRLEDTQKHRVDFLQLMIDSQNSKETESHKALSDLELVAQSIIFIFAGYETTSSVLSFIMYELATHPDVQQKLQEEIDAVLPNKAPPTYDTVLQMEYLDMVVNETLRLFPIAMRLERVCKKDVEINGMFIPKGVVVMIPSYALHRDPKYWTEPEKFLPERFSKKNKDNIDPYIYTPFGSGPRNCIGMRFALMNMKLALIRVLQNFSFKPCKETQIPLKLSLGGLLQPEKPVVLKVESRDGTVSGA
TEST DETAILS: in vitro
CONDITION DESCRIPTION: recombinant enzyme, % Inhibition of (R)-EDDP production, Supersome
RESULT TYPE: inhibition at 15 min, 500 µM (%)
Answer format: numeric, % implied, no suffix.

Ask | Param item = NNC(=O)c1ccncc1 ; retrieve measured inhibition at 15 min, 500 µM.
Reply | 96.9

----------
SYSTEM UNDER TEST: CYP2D6 (Homo sapiens, UniProt P10635)
Sequence (P10635 whole entry): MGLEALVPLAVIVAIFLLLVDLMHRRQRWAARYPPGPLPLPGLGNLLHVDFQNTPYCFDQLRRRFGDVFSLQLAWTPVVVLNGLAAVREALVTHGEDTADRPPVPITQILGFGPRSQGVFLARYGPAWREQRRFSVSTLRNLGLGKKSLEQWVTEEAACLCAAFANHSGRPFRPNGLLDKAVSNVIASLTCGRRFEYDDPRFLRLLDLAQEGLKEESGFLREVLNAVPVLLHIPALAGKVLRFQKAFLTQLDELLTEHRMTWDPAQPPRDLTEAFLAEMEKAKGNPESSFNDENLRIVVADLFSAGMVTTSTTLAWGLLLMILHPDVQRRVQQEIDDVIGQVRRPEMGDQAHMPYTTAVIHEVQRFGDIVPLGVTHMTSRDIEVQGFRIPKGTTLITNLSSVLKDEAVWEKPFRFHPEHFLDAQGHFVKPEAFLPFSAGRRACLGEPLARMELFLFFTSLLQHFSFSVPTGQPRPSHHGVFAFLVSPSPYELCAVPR
TEST DETAILS: in vitro
CONDITION DESCRIPTION: recombinant enzyme, % Inhibition of (R)-EDDP production, Supersome
RESULT TYPE: inhibition at 30 min, 1 µM (%)
Entry rule: numbers only, all in %.

Ask | Name the recorded inhibition at 30 min, 1 µM for Fc1ccc([C@@H]2CCNC[C@H]2COc2ccc3c(c2)OCO3)cc1 .
Reply | 9.9

----------
System: CYP3A4/5
TEST DETAILS: in vitro
CONDITION DESCRIPTION: human, microsomes, % Inhibition of (R)-EDDP production, HLM
RESULT TYPE: inhibition at 15 min, 500 µM (%)
The figure you give is taken to be in %; do not add the unit.

Ask | Give the measured inhibition at 15 min, 500 µM of NNC(=O)c1ccncc1 [Isoniazid, isoniazid] .
Reply | 70.8

----------
SYSTEM UNDER TEST: CYP2D6 (Homo sapiens)
TEST DETAILS: in vitro
CONDITION DESCRIPTION: recombinant enzyme, Inhibition of Supersome 2D6 activity
RESULT TYPE: inhibition at 30 min, 1 µM

Ask | Given the entry Fc1ccc([C@@H]2CCNC[C@H]2COc2ccc3c(c2)OCO3)cc1 , what inhibition at 30 min, 1 µM was observed with CYP2D6 (Homo sapiens)?
Reply | < 30%

----------
SYSTEM UNDER TEST: UniProt:P08684
TEST DETAILS: in vitro
CONDITION DESCRIPTION: recombinant enzyme, % Inhibition of (R)-EDDP production, Supersome
RESULT TYPE: inhibition at 15 min, 30 µM (%)
Just the number in %, nothing appended.

Ask | Please state recorded inhibition at 15 min, 30 µM (tested on UniProt:P08684) of O=C(c1ccc(OCCN2CCCCC2)cc1)c1c(-c2ccc(O)cc2)sc2cc(O)ccc12
Reply | 96.8

----------
SYSTEM UNDER TEST: CYP3A4 (Homo sapiens, UniProt P08684)
TEST DETAILS: in vitro
CONDITION DESCRIPTION: recombinant enzyme, % Inhibition of (S)-EDDP production, Supersome
RESULT TYPE: inhibition at 15 min, 30 µM (%)
# value in %; strip the unit string

Ask | Find the recorded inhibition at 15 min, 30 µM belonging to O=C(c1ccc(OCCN2CCCCC2)cc1)c1c(-c2ccc(O)cc2)sc2cc(O)ccc12 and report it.
Reply | 97.2

----------
SYSTEM UNDER TEST: CYP2D6 (Homo sapiens)
TEST DETAILS: in vitro
CONDITION DESCRIPTION: recombinant enzyme, % Inhibition of (S)-EDDP production, Supersome
RESULT TYPE: inhibition at 30 min, 1 µM (%)
# number only, unit % dropped from output

Ask | Data request, read-out inhibition at 30 min, 1 µM, for Fc1ccc([C@@H]2CCNC[C@H]2COc2ccc3c(c2)OCO3)cc1 [Paroxetine, paroxetine]
Reply | 7.6

----------
System: CYP2D6
TEST DETAILS: Inhibition of methadone N-demethylation
CONDITION DESCRIPTION: human, microsomes, Inhibition of (R)- and (S)-EDDP formation, HLM with high CYP2D6 activity; 1 µM
RESULT TYPE: inhibition at 30 min, 1 µM

Ask | Given the molecule Fc1ccc([C@@H]2CCNC[C@H]2COc2ccc3c(c2)OCO3)cc1 , what is its reported inhibition at 30 min, 1 µM?
Reply | < 30%
